molecular target: Glutamate NMDA receptor; Grin1/Grin2a (Rattus norvegicus, UniProt P35439+Q00959); experiment: Compound was tested in vitro for inhibition of NMDA response at cloned NR1A/2A receptor expressed in Xenopus oocytes
Sequence (Q00959 whole entry, looked up, other chains not shown): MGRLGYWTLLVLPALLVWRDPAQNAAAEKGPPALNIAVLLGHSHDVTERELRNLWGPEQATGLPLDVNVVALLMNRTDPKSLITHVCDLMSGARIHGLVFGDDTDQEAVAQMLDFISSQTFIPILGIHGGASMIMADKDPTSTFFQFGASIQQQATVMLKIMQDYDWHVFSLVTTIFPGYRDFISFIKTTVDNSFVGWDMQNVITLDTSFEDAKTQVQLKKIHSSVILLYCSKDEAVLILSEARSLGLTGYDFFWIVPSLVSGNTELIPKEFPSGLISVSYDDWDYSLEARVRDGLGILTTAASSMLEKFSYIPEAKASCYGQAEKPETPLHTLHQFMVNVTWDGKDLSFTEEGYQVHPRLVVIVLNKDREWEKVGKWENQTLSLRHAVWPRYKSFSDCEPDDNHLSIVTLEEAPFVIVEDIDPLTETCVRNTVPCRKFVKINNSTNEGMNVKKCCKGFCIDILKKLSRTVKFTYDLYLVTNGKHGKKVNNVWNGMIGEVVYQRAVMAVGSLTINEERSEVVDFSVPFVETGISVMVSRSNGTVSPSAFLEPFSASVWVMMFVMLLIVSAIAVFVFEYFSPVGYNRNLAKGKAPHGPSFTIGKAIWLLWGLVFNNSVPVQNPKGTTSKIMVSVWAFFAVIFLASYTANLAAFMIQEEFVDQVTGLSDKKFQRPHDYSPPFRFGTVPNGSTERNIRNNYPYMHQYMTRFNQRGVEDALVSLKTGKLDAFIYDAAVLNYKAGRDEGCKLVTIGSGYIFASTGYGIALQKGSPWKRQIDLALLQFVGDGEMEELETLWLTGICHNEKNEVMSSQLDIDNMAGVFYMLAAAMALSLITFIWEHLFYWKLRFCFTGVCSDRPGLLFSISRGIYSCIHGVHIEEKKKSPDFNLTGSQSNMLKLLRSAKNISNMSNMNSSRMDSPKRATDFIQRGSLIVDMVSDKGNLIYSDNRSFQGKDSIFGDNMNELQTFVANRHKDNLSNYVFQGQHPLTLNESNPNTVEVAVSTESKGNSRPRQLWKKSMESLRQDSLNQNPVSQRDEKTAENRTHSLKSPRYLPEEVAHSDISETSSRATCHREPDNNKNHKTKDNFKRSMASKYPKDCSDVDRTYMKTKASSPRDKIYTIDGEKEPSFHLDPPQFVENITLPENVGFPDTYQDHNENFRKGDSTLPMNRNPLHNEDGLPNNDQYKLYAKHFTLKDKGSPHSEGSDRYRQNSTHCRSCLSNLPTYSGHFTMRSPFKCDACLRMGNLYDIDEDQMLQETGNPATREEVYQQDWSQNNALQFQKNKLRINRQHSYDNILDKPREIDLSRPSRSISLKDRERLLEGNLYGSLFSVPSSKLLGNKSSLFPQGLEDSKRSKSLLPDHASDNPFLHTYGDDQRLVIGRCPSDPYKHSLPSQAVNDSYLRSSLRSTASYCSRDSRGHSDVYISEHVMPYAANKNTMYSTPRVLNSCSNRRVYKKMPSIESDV
VALUE_TYPE: pIC50
Schema: pIC50 number; meaning minus log10 of the concentration expressed in molar units.

OC1(c2ccccc2)CCN(CCC#Cc2c[nH]cn2)CC1
5.08
C(#Cc1cnc[nH]1)CN1CCC(Cc2ccccc2)CC1
4.42
Cc1ccc(CC2CCN(CCC#Cc3c[nH]cn3)CC2)cc1
4.80
C(#Cc1cnc[nH]1)CCN1CCC(c2ccccc2)CC1
5.85
Fc1ccc(CC2CCN(CCC#Cc3c[nH]cn3)CC2)cc1
4.40

Prompt: Requested read-out: pIC50. Entry: `Clc1ccc(CC2CCN(CCC#Cc3cnc[nH]3)CC2)cc1`
Completion: 4.59

Prompt: Quick one: pIC50 of `C(#Cc1cn[nH]c1)CCN1CCC(Cc2ccccc2)CC1` ?
Completion: 4.17

Prompt: Name the recorded pIC50 for `C(#Cc1cnc[nH]1)CCN1CCC(Cc2ccccc2)CC1` .
Completion: 4.28

Prompt: What pIC50 value was documented for this compound, `C(#Cc1cc[nH]c1)CCN1CCC(Cc2ccccc2)CC1` ?
Completion: 4.29

Prompt: Fill in the blank: the reported pIC50 of `C(#Cc1cc[nH]c1)CN1CCC(Cc2ccccc2)CC1` is ____.
Completion: 4.28

###

Reported pIC50 values for the following molecules.
target: Glutamate NMDA receptor; Grin1/Grin2b (Rattus norvegicus, UniProt P35439+Q00960); experiment: Inhibition of NMDA response at NR1A/2B receptor expressed in Xenopus oocytes; format: cell-based, Oocyte
Sequence (Q00960 whole entry, other chains not shown): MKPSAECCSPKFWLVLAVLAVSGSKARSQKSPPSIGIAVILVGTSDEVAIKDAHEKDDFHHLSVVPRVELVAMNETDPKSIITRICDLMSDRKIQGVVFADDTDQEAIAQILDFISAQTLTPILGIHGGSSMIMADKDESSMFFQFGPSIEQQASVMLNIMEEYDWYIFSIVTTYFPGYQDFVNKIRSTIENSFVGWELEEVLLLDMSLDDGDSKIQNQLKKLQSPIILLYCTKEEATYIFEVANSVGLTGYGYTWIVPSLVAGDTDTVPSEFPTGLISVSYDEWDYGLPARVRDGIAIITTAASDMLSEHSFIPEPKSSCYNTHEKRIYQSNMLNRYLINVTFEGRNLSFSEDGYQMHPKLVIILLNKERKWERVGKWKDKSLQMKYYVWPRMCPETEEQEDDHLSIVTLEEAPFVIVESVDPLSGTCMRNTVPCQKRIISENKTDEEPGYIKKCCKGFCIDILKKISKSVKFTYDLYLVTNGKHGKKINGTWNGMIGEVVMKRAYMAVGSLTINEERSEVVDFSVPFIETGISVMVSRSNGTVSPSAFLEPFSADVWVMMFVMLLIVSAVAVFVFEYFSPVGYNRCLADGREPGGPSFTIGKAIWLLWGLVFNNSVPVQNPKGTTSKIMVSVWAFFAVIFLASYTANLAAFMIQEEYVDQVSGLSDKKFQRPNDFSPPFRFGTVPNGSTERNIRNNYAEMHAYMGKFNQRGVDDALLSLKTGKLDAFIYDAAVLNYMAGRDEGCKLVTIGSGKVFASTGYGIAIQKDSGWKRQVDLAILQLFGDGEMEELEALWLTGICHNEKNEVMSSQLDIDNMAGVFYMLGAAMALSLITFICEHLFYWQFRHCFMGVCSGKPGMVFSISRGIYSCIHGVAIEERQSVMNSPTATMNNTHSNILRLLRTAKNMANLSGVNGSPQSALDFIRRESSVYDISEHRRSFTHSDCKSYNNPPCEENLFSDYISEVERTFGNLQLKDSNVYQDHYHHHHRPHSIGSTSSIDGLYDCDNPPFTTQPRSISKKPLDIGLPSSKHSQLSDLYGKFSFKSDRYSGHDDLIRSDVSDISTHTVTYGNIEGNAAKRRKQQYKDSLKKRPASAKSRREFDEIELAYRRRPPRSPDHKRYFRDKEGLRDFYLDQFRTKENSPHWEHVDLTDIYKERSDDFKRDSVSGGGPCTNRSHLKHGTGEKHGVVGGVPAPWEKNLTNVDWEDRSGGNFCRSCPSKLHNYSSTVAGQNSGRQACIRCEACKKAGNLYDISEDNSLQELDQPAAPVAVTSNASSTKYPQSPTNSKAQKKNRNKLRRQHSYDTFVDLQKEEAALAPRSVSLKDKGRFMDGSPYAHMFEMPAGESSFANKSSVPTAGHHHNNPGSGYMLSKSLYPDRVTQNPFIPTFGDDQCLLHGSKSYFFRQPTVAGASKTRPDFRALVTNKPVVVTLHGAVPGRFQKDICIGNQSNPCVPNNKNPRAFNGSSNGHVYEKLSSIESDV
Quick note: pIC50 values are minus log10 of concentrations in mol/L.

Prompt: Form field: pIC50 recorded for `OC1(c2ccccc2)CCN(CCC#Cc2c[nH]cn2)CC1` with Glutamate NMDA receptor; Grin1/Grin2b (Rattus norvegicus, UniProt P35439+Q00960) (enter value)
Completion: 5.46

###

molecular target: Glutamate receptor ionotropic, NMDA 2C (Rattus norvegicus, UniProt P35439+Q00961); experiment: Compound was tested in vitro for inhibition of NMDA response at cloned NR1A/2C receptor expressed in Xenopus oocytes; type: cell-based, frog, Oocyte
Sequence (Q00961 whole entry, one chain of several): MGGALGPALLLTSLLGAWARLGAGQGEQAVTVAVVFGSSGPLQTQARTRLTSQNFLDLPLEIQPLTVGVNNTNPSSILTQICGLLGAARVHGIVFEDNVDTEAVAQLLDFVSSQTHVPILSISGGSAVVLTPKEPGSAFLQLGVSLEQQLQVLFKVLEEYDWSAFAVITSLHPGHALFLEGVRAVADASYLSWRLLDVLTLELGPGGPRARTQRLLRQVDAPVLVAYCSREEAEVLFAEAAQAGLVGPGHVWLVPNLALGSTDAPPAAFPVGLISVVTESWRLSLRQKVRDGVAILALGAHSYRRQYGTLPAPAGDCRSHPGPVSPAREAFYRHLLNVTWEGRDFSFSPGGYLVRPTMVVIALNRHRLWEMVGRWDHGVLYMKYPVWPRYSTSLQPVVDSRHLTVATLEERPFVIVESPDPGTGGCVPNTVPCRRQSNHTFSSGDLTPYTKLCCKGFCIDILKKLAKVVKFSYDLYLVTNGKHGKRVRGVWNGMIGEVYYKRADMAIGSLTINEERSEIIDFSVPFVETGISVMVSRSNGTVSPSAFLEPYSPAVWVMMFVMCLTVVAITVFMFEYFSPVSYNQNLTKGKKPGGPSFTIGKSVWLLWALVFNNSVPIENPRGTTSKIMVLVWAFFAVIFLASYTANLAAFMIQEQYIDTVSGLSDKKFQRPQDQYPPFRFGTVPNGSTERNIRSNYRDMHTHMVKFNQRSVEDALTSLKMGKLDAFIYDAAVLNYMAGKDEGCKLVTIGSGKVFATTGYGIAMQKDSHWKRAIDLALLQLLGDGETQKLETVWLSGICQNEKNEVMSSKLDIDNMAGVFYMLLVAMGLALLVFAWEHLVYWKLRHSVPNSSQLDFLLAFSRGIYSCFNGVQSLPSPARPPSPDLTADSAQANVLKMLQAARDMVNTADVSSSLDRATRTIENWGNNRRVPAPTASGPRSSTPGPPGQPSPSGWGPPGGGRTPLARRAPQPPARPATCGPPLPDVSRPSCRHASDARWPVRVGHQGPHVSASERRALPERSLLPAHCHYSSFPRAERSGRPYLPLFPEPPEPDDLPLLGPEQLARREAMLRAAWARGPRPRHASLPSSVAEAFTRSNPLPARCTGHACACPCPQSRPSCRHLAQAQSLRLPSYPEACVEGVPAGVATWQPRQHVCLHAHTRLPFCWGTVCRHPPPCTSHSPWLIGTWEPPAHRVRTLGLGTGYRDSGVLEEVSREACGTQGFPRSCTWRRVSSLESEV
pIC50: −log10 of the molar value.
Parameter: pIC50. Scope: all listed entries.

C(#Cc1cc[nH]c1)CCN1CCC(Cc2ccccc2)CC1
< 4.00
Fc1ccc(CC2CCN(CCC#Cc3c[nH]cn3)CC2)cc1
< 4.00

Please find the next compound below.
Prompt: Name the recorded pIC50 for `C(#Cc1cn[nH]c1)CCN1CCC(Cc2ccccc2)CC1` .
Completion: < 4.00

###

target: Glutamate NMDA receptor; Grin1/Grin2b (Rattus norvegicus, UniProt P35439+Q00960); experiment: Inhibition of NMDA response at NR1A/2B receptor expressed in Xenopus oocytes; type: cell-based, Oocyte
VALUE_TYPE: pIC50
# pIC50: negative log10 of molar concentration; output just the value

Fc1ccc(CC2CCN(CCC#Cc3c[nH]cn3)CC2)cc1
7.30
C(#Cc1cc[nH]c1)CN1CCC(Cc2ccccc2)CC1
5.96
C(#Cc1cnc[nH]1)CCN1CCC(c2ccccc2)CC1
6.09

Prompt: Any idea what pIC50 was measured for `OC1(Cc2ccccc2)CCN(CCC#Cc2c[nH]cn2)CC1` ?
Completion: 6.66
